The reported numbers originate from paper PMC8518066.

target: hDPP3 (Homo sapiens); construct: His6 (cleaved yes); assay: Fluorescence-based competitive enzyme inhibition assay (degradation of H-Arg-Arg-βNA substrate); conditions: hDPP3, H-Arg-Arg-βNA substrate, 37 °C, pH 8.0
Sequence (Q9NY33 1-726): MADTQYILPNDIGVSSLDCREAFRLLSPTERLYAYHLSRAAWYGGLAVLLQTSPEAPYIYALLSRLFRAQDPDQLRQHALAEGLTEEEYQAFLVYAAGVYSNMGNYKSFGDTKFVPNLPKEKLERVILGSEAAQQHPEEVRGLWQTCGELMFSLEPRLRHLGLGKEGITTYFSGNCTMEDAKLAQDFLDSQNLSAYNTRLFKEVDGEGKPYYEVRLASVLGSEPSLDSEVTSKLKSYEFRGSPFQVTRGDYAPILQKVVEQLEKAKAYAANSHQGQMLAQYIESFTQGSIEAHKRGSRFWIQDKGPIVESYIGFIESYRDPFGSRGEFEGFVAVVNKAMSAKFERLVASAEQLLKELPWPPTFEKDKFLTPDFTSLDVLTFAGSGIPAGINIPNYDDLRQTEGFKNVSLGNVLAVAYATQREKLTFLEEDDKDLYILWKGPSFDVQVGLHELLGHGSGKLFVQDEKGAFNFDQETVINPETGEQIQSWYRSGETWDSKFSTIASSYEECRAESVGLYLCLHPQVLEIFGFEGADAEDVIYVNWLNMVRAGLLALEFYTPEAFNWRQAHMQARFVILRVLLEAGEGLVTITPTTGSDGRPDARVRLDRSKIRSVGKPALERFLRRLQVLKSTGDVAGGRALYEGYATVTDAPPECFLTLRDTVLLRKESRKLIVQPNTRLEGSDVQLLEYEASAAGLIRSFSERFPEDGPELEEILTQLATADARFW
Measured pIC50, listed per entry for reference.
Field pIC50 (float): negative decimal logarithm of the concentration in molar.

Completed entries (count: 3):
| Molecule | pIC50 |
| --- | --- |
| CC(C)[C@H](N)C(=O)N[C@@H](C(C)C)[C@H](O)C[C@@H](Cc1ccccc1)C(=O)N1CCCC[C@H]1C(=O)N[C@@H](Cc1c[nH]c2ccccc12)C(=O)O | 4.46 |
| CC(C)[C@H](N)C(=O)N[C@@H](C(C)C)[C@@H](O)C[C@@H](Cc1ccccc1)C(=O)N1CCC[C@H]1C(=O)N[C@@H](Cc1c[nH]c2ccccc12)C(=O)O | 4.01 |
| CC(C)C(N)C(=O)NC(C(C)C)C(O)CC(Cc1ccccc1)C(=O)N1CCCC1C(=O)NC(Cc1c[nH]c2ccccc12)C(=O)O (stereo not shown) | 4.86 |

Next item in the queue.
Q: Any idea what its pIC50 is? The molecule is COC(=O)[C@H](Cc1c[nH]c2ccccc12)NC(=O)[C@@H]1CCCN1C(=O)[C@H](Cc1ccc(O)cc1)C[C@@H](O)[C@@H](NC(=O)[C@@H](N)C(C)C)C(C)C
A: 4.75

---

Measured Kd, listed per entry for reference.
molecular target: hDPP3 (inactive variant E451A) (Homo sapiens, UniProt Q9NY33, E451A); construct: His6 (cleaved yes); assay: Isothermal titration calorimetry (ITC); conditions: hDPP3 E451A, 298 K, mean of three independent measurements
Sequence (Q9NY33 1-726 E451A): as the sequence (Q9NY33 1-726) above, with E451A counted along it
Kindly report the value followed by its unit.

| Molecule | Property Name | Result |
| --- | --- | --- |
| CC(C)C(N)C(=O)NC(C(C)C)C(O)CC(Cc1ccccc1)C(=O)N1CCCC1C(=O)NC(Cc1c[nH]c2ccccc12)C(=O)O (centres unmarked) | Kd | 11 µM |

Q: Any idea what its Kd is? The molecule is CC(C)[C@H](N)C(=O)N[C@@H](C(C)C)[C@@H](O)C[C@@H](Cc1ccccc1)C(=O)N1CCC[C@H]1C(=O)N[C@@H](Cc1c[nH]c2ccccc12)C(=O)O
A: 23 µM

---

Measured melting point, listed per entry for reference.

Q: Any idea what its melting point is? The molecule is CC(C)[C@H](N)C(=O)N[C@@H](C(C)C)[C@H](O)C[C@@H](Cc1ccc(O)cc1)C(=O)N1CCC[C@H]1C(=O)N[C@@H](Cc1c[nH]c2ccccc12)C(=O)O
A: 172 to 174 °C

Q: Any idea what its melting point is? The molecule is CC(C)[C@H](NC(=O)[C@@H](N)C(C)(C)C)[C@H](O)C[C@@H](Cc1ccccc1)C(=O)N1CCCC[C@H]1C(=O)N[C@@H](Cc1c[nH]c2ccccc12)C(=O)O
A: 164 to 166 °C

Q: Any idea what its melting point is? The molecule is Cc1ccc(C[C@H](C[C@@H](O)[C@@H](NC(=O)[C@@H](N)C(C)C)C(C)C)C(=O)N2CCC[C@H]2C(=O)N[C@@H](Cc2c[nH]c3ccccc23)C(=O)O)cc1
A: 160 to 162 °C

Q: Any idea what its melting point is? The molecule is CC(C)C(N)C(=O)NC(C(C)C)C(O)CC(Cc1ccccc1)C(=O)N1CCCC1C(=O)NC(Cc1c[nH]c2ccccc12)C(=O)O (stereo not shown)
A: 148 to 152 °C

Q: Any idea what its melting point is? The molecule is COC(=O)[C@H](Cc1c[nH]c2ccccc12)NC(=O)[C@@H]1CCCN1C(=O)[C@H](Cc1ccc(O)cc1)C[C@@H](O)[C@@H](NC(=O)[C@@H](N)C(C)C)C(C)C
A: 148 to 150 °C

Q: Any idea what its melting point is? The molecule is CC(C)[C@H](N)C(=O)N[C@@H](C(C)C)[C@H](O)C[C@@H](Cc1ccccc1)C(=O)N1CCCC[C@H]1C(=O)N[C@@H](Cc1c[nH]c2ccccc12)C(=O)O
A: 160 to 162 °C

Q: Any idea what its melting point is? The molecule is CC(C)[C@H](N)C(=O)N[C@@H](C(C)C)[C@H](O)C[C@@H](Cc1ccc(F)cc1)C(=O)N1CCC[C@H]1C(=O)N[C@@H](Cc1c[nH]c2ccccc12)C(=O)O
A: 168 to 170 °C
